# assayDetails: Safety index, ratio of compound IC50 to primaquine IC50 for rat L6 cells
# Format: ADME, cell-based
# testSettings: read-out: Ratio IC50
# reported selectivity ratio; entries follow
readoutKind: selectivity ratio

INSERT INTO results (molecule, readoutnumber) VALUES
  ('COc1cc(NC(C)CCCNC(=O)NC(C(=O)NC(c2ccccc2)c2ccc(Cl)cc2)c2ccc(Cl)cc2)c2ncccc2c1 (configuration not stated)', 2.5),
  ('COc1cc(NC(C)CCCNC(=O)NC(C(=O)NC(c2ccccc2)c2ccccc2)c2ccc(Cl)cc2)c2ncccc2c1 (configuration not stated)', 2.7);

====

# assayDetails: Selectivity index, ratio of IC50 for rat L6 cells to IC50 for erythrocytic stage of Plasmodium falciparum NF54
# Type: toxicity
# testSettings: read-out: Ratio IC50
# reported selectivity ratio; entries follow
readoutKind: selectivity ratio

INSERT INTO assay_data (compound, relationaloperator, readoutnumber) VALUES
  ('COc1cc(NC(C)CCCNC(=O)NNC(=O)/C(C)=C/c2ccccc2)c2ncccc2c1 (centres undefined)', '=', 1.6),
  ('COc1cc(NC(C)CCCNC(=O)NNC(=O)/C=C/c2ccc(C(F)(F)F)cc2)c2ncccc2c1 (centres undefined)', '<', 1.5),
  ('COc1cc(NC(C)CCCNC(=O)/C=C/c2cccc(C(F)(F)F)c2)c2ncccc2c1 (centres undefined)', '=', 1),
  ('COc1cc(NC(C)CCCNC(=O)/C=C/c2ccc(Cl)cc2)c2ncccc2c1 (centres undefined)', '=', 1.2),
  ('COc1cc(NC(C)CCCNC(=O)NNC(=O)/C=C/c2ccc(Cl)cc2)c2ncccc2c1 (centres undefined)', '=', 0.3),
  ('COc1cc(NC(C)CCCNC(=O)NC(C(=O)NC(c2ccccc2)c2ccc(Cl)cc2)c2ccccc2)c2ncccc2c1 (centres undefined)', '>', 53.3),
  ('COc1ccc(C(=NNC(=O)NCCCC(C)Nc2cc(OC)cc3cccnc23)c2ccc(OC)cc2)cc1 (centres undefined)', '=', 78.3),
  ('COc1cc(NC(C)CCCN)c2ncccc2c1 (centres undefined) [PRIMAQUINE PHOSPHATE]', '=', 39.7),
  ('COc1cc(NC(C)CCCNC(=O)NNC(=O)/C=C/c2ccc(OC)c(OC)c2)c2ncccc2c1 (centres undefined)', '<', 1.9);
